- studyTarget: HLA-A*01:01 (Homo sapiens, UniProt P04439, A114D/A174V/A182V/D101N/D185E/E176A/E190D/L180R/Q94H/R68K/S129P/T187R/V100A/V91M/W191G)
- experimentalProtocol: MHC binding assay, UV-ligand exchange ELISA
- measurementParameters: peptide exchange yield, binding to HLA-A*01:01

substance	Peptide exchange
98 (FSEIFQDFL; listed as Homo sapiens) [compound 98]	+++ (≥50% = +++)
92 (LNFSDVFLY; listed as Homo sapiens) [compound 92]	++ (≥20% = ++)
56 (DVDIHKDLY; listed as Homo sapiens) [compound 56]	++++ (≥75% = ++++)
196 (NSENLLVY; listed as Homo sapiens) [compound 196]	+++ (≥50% = +++)
54 (ASSPVILLL; listed as Homo sapiens) [compound 54]	++ (≥20% = ++)
99 (RADEEQASF; listed as Homo sapiens) [compound 99]	++ (≥20% = ++)
26 (ETNTIEFIY; listed as Homo sapiens) [compound 26]	++++ (≥75% = ++++)
68 (TVDKGELLY; listed as Homo sapiens) [compound 68]	++++ (≥75% = ++++)
122 (FTQKINSTW; listed as Homo sapiens) [compound 122]	++ (≥20% = ++)
60 (VSPDEVLALW; listed as Homo sapiens) [compound 60]	++ (≥20% = ++)
136 (YSSEIWDLY; listed as Homo sapiens) [compound 136]	++++ (≥75% = ++++)
171 (NVSFEVSLLY; listed as Homo sapiens) [compound 171]	++++ (≥75% = ++++)
65 (NSDLFYLLL; listed as Homo sapiens) [compound 65]	++++ (≥75% = ++++)
135 (SADTAELLL; listed as Homo sapiens) [compound 135]	++ (≥20% = ++)
83 (EAAPNIMHY; listed as Homo sapiens) [compound 83]	++ (≥20% = ++)
71 (LIDSLLLLL; listed as Homo sapiens) [compound 71]	+++ (≥50% = +++)
